# procedure.summary: Cmax in plasma of C57BL/6J mouse at 20 mg/kg, po measured for 24 hrs
# Format: ADME, organism-based
property.measured: Cmax (ng/mL)
Write it as a number; the unit ng/mL goes unstated.

*Q* Give the measured Cmax for `CCC(=O)N1CCC(CNC(=O)NC2CCN(C(=O)Cc3cc(OC)cc(OC)c3)CC2)CC1`
*A* 76.7

*Q* Give the measured Cmax for `COc1cc(CC(=O)N2CCC(NC(=O)NCc3ccc(OC(F)(F)F)cc3)CC2)cc(OC)c1`
*A* 482

---

# assay.system: Bifunctional epoxide hydrolase 2 (Mus musculus)
# Sequence (P34914 whole entry): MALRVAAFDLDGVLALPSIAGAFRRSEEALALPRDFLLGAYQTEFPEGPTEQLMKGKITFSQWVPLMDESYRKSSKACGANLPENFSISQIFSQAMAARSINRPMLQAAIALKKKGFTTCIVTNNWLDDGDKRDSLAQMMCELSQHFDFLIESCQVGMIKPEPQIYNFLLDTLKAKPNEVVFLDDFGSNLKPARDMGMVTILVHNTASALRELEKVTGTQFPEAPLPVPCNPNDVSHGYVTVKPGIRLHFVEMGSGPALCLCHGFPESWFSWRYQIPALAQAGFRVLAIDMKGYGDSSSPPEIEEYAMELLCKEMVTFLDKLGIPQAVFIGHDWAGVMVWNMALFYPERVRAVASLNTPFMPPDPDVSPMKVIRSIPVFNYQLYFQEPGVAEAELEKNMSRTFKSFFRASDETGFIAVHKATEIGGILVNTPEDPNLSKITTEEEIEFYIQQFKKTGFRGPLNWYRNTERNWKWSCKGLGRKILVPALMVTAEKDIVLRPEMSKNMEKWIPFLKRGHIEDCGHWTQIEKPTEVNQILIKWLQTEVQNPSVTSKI
# procedure.summary: biochemical
# Description: Inhibition of C57BL/6J mouse brain sEH using 14,15-EET as substrate preincubated for 15 mins followed by substrate addition by HPLC-MS analysis
property.measured: pIC50
Quick note: pIC50 values are minus log10 of concentrations in mol/L.

*Q* Give the measured pIC50 for `COc1cc(CC(=O)N2CCC(NC(=O)NCCN(C)C)CC2)cc(OC)c1`
*A* 4.80

*Q* Give the measured pIC50 for `COc1cc(CCC(=O)N2CCC(NC(=O)NCc3ccc(OC(F)(F)F)cc3)CC2)cc(OC)c1`
*A* 9.14

*Q* Give the measured pIC50 for `O=C(NCc1ccc(OC(F)(F)F)cc1)NC1CCN(C(=O)Cc2ccc3c(c2)OCO3)CC1`
*A* 9.07

*Q* Give the measured pIC50 for `O=C(Cc1ccccn1)Nc1cccc(CC(=O)N2CCC(NC(=O)NCc3ccc(OC(F)(F)F)cc3)CC2)c1`
*A* 8.51

*Q* Give the measured pIC50 for `CN(C)C(=O)NC1CCN(C(=O)Cc2ccc3c(c2)OCO3)CC1`
*A* 4.19

*Q* Give the measured pIC50 for `COc1cc(CC(=O)N2CCC(NC(=O)NCC(C)C)CC2)cc(OC)c1`
*A* 7.96
